Hi there, I'd appreciate the recorded CC50 at 72 h for every entry that follows.
Test Name: Cytotoxicity against MDBK cells incubated for 72 hrs by CCK8 assay
Type: toxicity, cell-based, Bos taurus
Recorded Conditions: cattle, MDBK cells

Input: # lookup: CC50 at 72 h of C#CCn1cc(/C=N\N=C\c2cccnc2)c2cc([N+](=O)[O-])ccc21
Output: 111 µM

Input: # lookup: CC50 at 72 h of C#CCn1cc(/C=N\N=C\c2cccs2)c2cc([N+](=O)[O-])ccc21
Output: > 297 µM

Input: # lookup: CC50 at 72 h of C#CCn1cc(/C=N\N=C\c2ccccn2)c2cc([N+](=O)[O-])ccc21
Output: > 121 µM

Input: # lookup: CC50 at 72 h of C#CCn1cc(/C=N\N=C\c2nccn2C)c2cc([N+](=O)[O-])ccc21
Output: > 302 µM

Input: # lookup: CC50 at 72 h of C#CCn1cc(/C=N\N=C\c2cnc[nH]2)c2cc([N+](=O)[O-])ccc21
Output: > 312 µM

Input: # lookup: CC50 at 72 h of C#CCn1cc(\C=N/N=C/C=C/c2ccccc2)c2cc([N+](=O)[O-])ccc21
Output: 9.2 µM

Input: # lookup: CC50 at 72 h of C#CCn1cc(/C=N\N=C\c2ccc([N+](=O)[O-])cc2)c2cc([N+](=O)[O-])ccc21
Output: > 68.2 µM

Input: # lookup: CC50 at 72 h of C#CCn1cc(C=O)c2cc([N+](=O)[O-])ccc21
Output: > 438 µM

Input: # lookup: CC50 at 72 h of C#CCn1cc(/C=N\N=C\c2ccc([N+](=O)[O-])s2)c2cc([N+](=O)[O-])ccc21
Output: > 263 µM

Input: # lookup: CC50 at 72 h of C#CCn1cc(/C=N\N=C\c2cccn2C)c2cc([N+](=O)[O-])ccc21
Output: > 299 µM

Input: # lookup: CC50 at 72 h of C#CCn1cc(/C=N\N=C/CCC)c2cc([N+](=O)[O-])ccc21
Output: > 338 µM

Input: # lookup: CC50 at 72 h of C#CCn1cc(/C=N\N=C/C)c2cc([N+](=O)[O-])ccc21
Output: > 373 µM
